# Test system: Escherichia coli TOP10
# assay.summary: shrunken log2 fold change of peptide-encoding DNA abundance (4.5 h post-induction vs induction); higher = less antimicrobial activity (less host growth inhibition)
# condition.details: time post-induction: 4.5 h; library: site-saturation at positions 5, 18, 19, 20
Rule: shrunken log2 fold change of -0.1 or more gives condition met; anything lower gives condition not met.

Observe how each entry below is paired with its result.
>>> print(df.to_string())
          monomer_sequence   class_assignment
0  RRIRSRPPRLPRPRPRPPWEPRP      condition met
1  RRIRIRPPRLPRPRPRPHFDPRP  condition not met
2  RRIRHRPPRLPRPRPRPMTYPRP  condition not met
3  RRIRDRPPRLPRPRPRPRRLPRP      condition met
4  RRIRHRPPRLPRPRPRPLRYPRP  condition not met
5  RRIRIRPPRLPRPRPRPYMGPRP  condition not met

Q. Determine whether measured shrunken log2 fold change meets or exceeds -0.1 for RRIRIRPPRLPRPRPRPGAQPRP
A. condition met

Q. Determine whether measured shrunken log2 fold change meets or exceeds -0.1 for RRIRYRPPRLPRPRPRPTNEPRP
A. condition not met

###

Measured shrunken log2 fold change, listed per entry.
# Tested on: Escherichia coli TOP10
# assay.summary: shrunken log2 fold change of peptide-encoding DNA abundance (4.5 h post-induction vs induction); higher = less antimicrobial activity (less host growth inhibition)
# condition.details: time post-induction: 4.5 h; library: site-saturation at positions 5, 18, 19, 20
Lab note: jot down the number only; don't add units.

For orientation, consider the following solved cases.
          monomer_sequence         measured_target  result_value
0  RRIRYRPPRLPRPRPRPDCDPRP  Escherichia coli TOP10        -0.124
1  RRIRYRPPRLPRPRPRPTSHPRP  Escherichia coli TOP10        -0.611
2  RRIRVRPPRLPRPRPRPICMPRP  Escherichia coli TOP10       -0.0265
3  RRIRRRPPRLPRPRPRPGHGPRP  Escherichia coli TOP10          1.04
4  RRIRHRPPRLPRPRPRPRKWPRP  Escherichia coli TOP10       -0.0137
5  RRIRRRPPRLPRPRPRPNFDPRP  Escherichia coli TOP10        -0.102
6  RRIRMRPPRLPRPRPRPFIAPRP  Escherichia coli TOP10        -0.251
7  RRIRMRPPRLPRPRPRPSWCPRP  Escherichia coli TOP10         0.387

--- query ---
Q. Name the reported shrunken log2 fold change value associated with the sequence RRIRNRPPRLPRPRPRPLWQPRP
A. -0.303

###

# System: Escherichia coli TOP10;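 further: peptides expressed intracellularly from a pBAD plasmid library in pooled LB shake-flask culture, induced with 0.3% L-arabinose, DNA abundance read by NGS, three biological replicates, DESeq2 with apeglm shrinkage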
# assay.summary: shrunken log2 fold change of peptide-encoding DNA abundance (4.5 h post-induction vs induction); higher = less antimicrobial activity (less host growth inhibition)
# condition.details: time post-induction: 4.5 h; library: site-saturation at positions 5, 18, 19, 20
Measured shrunken log2 fold change, listed per entry.
Lab note: jot down the number only; don't add units.

For orientation, consider the following solved cases.
          monomer_sequence  result_value
0  RRIRPRPPRLPRPRPRPEHYPRP        -0.106
1  RRIRMRPPRLPRPRPRPHNYPRP       -0.0828
2  RRIRSRPPRLPRPRPRPHYPPRP        -0.615
3  RRIRDRPPRLPRPRPRPSIQPRP       -0.0741
4  RRIRERPPRLPRPRPRPRFIPRP        -0.414

Q. Name the reported shrunken log2 fold change value associated with the sequence RRIRMRPPRLPRPRPRPTVDPRP
A. 0.00715

Q. Name the reported shrunken log2 fold change value associated with the sequence RRIRYRPPRLPRPRPRPEEHPRP
A. 0.0203

Q. Name the reported shrunken log2 fold change value associated with the sequence RRIRVRPPRLPRPRPRPAWQPRP
A. -0.00433

Q. Name the reported shrunken log2 fold change value associated with the sequence RRIRFRPPRLPRPRPRPTQWPRP
A. 0.267

Q. Name the reported shrunken log2 fold change value associated with the sequence RRIRGRPPRLPRPRPRPNFAPRP
A. 0.569

Q. Name the reported shrunken log2 fold change value associated with the sequence RRIRSRPPRLPRPRPRPQVVPRP
A. -0.144

Q. Name the reported shrunken log2 fold change value associated with the sequence RRIRERPPRLPRPRPRPTDDPRP
A. -0.00106

Q. Name the reported shrunken log2 fold change value associated with the sequence RRIRIRPPRLPRPRPRPPINPRP
A. -0.305
